studySystem: T1, PUF4 RNA-binding domain (Saccharomyces cerevisiae, UniProt P25339 537-888)
T1 sequence: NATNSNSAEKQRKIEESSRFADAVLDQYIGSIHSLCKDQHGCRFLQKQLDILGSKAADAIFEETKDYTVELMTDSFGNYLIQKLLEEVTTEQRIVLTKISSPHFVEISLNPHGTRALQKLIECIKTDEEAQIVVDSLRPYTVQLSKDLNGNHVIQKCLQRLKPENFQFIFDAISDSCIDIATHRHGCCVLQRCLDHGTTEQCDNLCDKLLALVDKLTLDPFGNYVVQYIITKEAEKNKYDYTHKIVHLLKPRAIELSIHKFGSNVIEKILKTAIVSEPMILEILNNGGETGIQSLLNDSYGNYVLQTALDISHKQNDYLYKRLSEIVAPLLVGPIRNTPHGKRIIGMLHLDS
assaySummary: Mg; RNA-MaP; 20 mM Na-HEPES pH 7.4, 30 mM KOAc, 0.75 mM MgCl2, 0.1% Tween-20, 5% glycerol, 0.1 mg/mL BSA, 2 mM DTT; 25 C; 0.0125-409.6 nM protein
studyConditions: tags: N-His6-TEV cleaved; C-SNAP kept, Cy3B-labelled; label: tethered on chip by stalled RNA polymerase
measuredMetric: Kd (nM)
Answers are plain numbers, in nM.

Worked examples follow.
{"columns": ["binder", "Kd / nM"],
 "data": [
  ["Id_ii_S2_P5E.3_K5.2_C5.2_[C-2A]_[T-1C]_H5.2_A5.1_F5.1_T5.2_[T11C]_[A12T] (ssRNA) RNA: UUUGAUUAAUAUGAUAUCGUUCUUUCUACUAUAUUAUUACUUUCUUUCUCGAUAUCAUAUUAAUCUUU", 98.6],
  ["UCUCUUUGUACCCUAUUAUCUCUU (ssRNA) [Ie_S1_P4E.1_K4.1_C4.1_H4.1_[+4CCC]_A4.1_F4.1_T4.1]", 5.85]
]}

-- ask # query: Kd of entry UCUCUUUGUAUGUACCUCUCUU (ssRNA) [Ic_S1_P5E.1_K5.1_C5.1_H5.1_A5.1_[T6G]_[A7T]_F5.1_[T8A]_[T9C]_[A10C]_T5.1]
-- reply 93.8
